biological target: Alkaline phosphatase, placental type (Homo sapiens); assay: inhibitors of placental alkaline phosphatase – biochemical, human PLAP isozyme, selectivity assay for human IAP inhibitor project, SAR follow-up (AID 493138); settings: purified placental alkaline phosphatase, enzyme activity
Calls of active or inactive are those of the source. How the calls were made is not given here.
Labels: Y (active), N (inactive)

>>> df
                                   molecule  class_assignment
0    COC(=O)/C=C1\S/C(=N/N=C/CC(=O)OC)NC1=O                 N
1  NS(=O)(=O)c1ccc(Nc2nc(-c3ccc(O)cc3O)cs2)cc1                 N
2  COc1cc(C=NNC(=S)Nc2cccc(S(=O)(=O)N(C)C)c2)cc(OC)c1O                 N
3  COC(=O)/C=C1\SC(N=Nc2c(O)[nH]c3ccccc23)=NC1=O                 N
4  CN(C)S(=O)(=O)c1cccc(NC(=S)NN=Cc2ccc(O)c(O)c2O)c1                 N
5  O=[N+]([O-])c1ccccc1NC(=S)NN=Cc1ccc(O)c(O)c1                 Y
6  N#CCCn1cc(/C=N/N=C2/NC(=O)C(CC(=O)O)S2)c(-c2ccc(F)cc2)n1 (stereo not given)                 N
7  COC(=O)/C=C1/S/C(=N/NC(=O)c2ccc(Cl)cc2Cl)NC1=O                 N
8  Cc1ccc2sc(NNC(=O)c3ccc4c(c3)OCCO4)nc2c1C                 N
9  CC(C)(C)c1ccc(/C=N/N=C2\NC(=O)C(CC(=O)O)S2)cc1 (stereo not given)                 N
